# target-entity: T1, ECF33_423
# T1 chain: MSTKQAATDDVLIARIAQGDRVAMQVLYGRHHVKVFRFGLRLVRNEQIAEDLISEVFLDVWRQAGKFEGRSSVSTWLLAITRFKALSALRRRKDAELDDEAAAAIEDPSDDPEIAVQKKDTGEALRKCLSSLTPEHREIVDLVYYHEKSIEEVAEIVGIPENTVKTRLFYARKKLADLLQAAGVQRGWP
readout: fold repression
Form rule: numeric answer, no unit written next to it.

Known results for binders:
AS01_3473 (protein) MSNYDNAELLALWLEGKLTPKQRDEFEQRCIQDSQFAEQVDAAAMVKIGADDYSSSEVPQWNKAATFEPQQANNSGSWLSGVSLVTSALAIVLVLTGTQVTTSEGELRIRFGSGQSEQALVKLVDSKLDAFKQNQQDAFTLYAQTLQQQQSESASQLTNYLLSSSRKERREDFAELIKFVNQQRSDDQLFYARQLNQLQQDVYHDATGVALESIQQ ... 1.1
AS04_1609 (protein) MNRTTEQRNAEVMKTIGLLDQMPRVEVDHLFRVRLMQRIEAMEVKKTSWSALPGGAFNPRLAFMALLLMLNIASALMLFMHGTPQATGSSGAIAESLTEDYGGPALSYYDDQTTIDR ... 3.53
AS15_436 (protein) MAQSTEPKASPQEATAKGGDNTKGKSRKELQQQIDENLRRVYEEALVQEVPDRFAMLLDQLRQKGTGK ... 3.04
AS37_2513 (protein) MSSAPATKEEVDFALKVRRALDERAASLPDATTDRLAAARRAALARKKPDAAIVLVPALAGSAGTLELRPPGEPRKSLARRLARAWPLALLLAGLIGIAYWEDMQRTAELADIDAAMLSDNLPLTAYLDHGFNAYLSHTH ... 3.3
AS33_423 (protein) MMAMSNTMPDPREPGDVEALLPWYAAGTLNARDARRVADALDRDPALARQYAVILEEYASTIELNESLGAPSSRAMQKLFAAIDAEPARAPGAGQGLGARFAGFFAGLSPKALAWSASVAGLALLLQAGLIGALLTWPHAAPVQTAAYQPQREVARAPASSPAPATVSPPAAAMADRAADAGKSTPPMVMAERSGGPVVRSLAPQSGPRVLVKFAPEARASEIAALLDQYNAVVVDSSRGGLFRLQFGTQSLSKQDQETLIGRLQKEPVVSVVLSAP ... 84.3

# input Tell us which fold repression value is on record for AS35_3582 (protein) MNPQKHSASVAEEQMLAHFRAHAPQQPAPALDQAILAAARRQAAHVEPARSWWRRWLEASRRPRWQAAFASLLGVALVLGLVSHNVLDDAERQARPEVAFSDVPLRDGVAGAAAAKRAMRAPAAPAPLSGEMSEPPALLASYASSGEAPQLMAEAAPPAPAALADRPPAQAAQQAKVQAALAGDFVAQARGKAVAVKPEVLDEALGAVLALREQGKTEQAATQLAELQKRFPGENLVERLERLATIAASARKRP
# output 3.76

# input Tell us which fold repression value is on record for AS03_1198 (protein) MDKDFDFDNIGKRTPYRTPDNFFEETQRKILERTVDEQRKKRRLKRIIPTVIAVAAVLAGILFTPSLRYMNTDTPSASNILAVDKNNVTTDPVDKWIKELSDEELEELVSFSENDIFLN
# output 0.857

# input Tell us which fold repression value is on record for AS25_1643_cl43 (protein) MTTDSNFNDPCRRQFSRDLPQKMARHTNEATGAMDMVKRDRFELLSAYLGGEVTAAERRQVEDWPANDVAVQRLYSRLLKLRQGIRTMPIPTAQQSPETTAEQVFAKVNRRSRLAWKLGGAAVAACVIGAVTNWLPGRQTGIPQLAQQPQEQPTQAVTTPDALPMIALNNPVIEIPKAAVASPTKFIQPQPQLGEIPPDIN
# output 1.23
